Where do the numbers come from? From paper PMC12493155.

target-desc: Ysp1^StARkin (Saccharomyces cerevisiae, UniProt P38851)
Sequence (P38851 765-978): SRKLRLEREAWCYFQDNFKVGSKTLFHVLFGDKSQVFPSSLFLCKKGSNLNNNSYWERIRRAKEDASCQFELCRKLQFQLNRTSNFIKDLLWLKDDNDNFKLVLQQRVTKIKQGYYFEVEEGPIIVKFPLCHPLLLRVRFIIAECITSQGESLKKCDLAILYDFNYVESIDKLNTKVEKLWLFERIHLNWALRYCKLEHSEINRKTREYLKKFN
Counter-ions that a name gives are not always drawn.
measurement-label: Kd
Lab note: write values as number then unit, every time.

Task: Which Kd is reported for this molecule? CC(C)CCC[C@@H](C)[C@H]1CC[C@H]2[C@@H]3CC=C4C[C@@H](OS(=O)(=O)O)CC[C@]4(C)[C@H]3CC[C@]12C [cholesterol sulfate]
Output: 47 nM

====

target-desc: Lam5 (ΔTMD) (Saccharomyces cerevisiae)
Sequence (P43560 1-633): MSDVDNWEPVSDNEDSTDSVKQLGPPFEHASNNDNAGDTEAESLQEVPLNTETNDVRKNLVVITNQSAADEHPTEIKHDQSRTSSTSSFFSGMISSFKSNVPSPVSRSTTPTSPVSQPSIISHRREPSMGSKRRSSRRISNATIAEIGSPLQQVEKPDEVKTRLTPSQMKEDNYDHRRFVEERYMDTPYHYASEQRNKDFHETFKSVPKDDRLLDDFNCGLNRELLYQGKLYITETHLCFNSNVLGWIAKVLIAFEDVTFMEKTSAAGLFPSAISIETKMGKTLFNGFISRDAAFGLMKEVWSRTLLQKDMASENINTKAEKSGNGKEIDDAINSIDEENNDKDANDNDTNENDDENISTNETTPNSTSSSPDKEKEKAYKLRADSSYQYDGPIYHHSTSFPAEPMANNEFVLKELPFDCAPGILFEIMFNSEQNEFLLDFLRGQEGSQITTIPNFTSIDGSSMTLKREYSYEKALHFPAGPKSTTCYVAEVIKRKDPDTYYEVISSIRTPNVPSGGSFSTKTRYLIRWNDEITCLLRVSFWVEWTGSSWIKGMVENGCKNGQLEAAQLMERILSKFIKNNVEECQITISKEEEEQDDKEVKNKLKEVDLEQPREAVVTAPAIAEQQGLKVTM
Where a name gives a salt, the structure may show the parent alone.
measurement-label: pKd
Numbers only, as −log10 of the molar value.

Task: Which pKd is reported for this molecule? CC(C)CCC[C@@H](C)[C@H]1CC[C@H]2[C@@H]3CC=C4C[C@@H](OS(=O)(=O)O)CC[C@]4(C)[C@H]3CC[C@]12C [cholesterol sulfate]
Output: 6.54
